Values compiled from PubChem BioAssay (NCI).

# Tested on: CAKI-1 renal
# PROCEDURE DETAILS: NCI-60 one-dose screen, 48 h (100 = growth as untreated, 0 = no growth, -100 = all killed)
# SETUP CONDITIONS: 10 µM unless noted
This is part of a sample that, as a whole, favours compounds with a hit. Of some 83,000 tested, about 20% had one in any assay.
OBSERVATION TYPE: growth (%)
# unit: % | format: bare number

Look over these answered cases.
> print(dat)
                                     mol  observed.value
1    C=C[C@@H]1C[C@@H]2Cc3cc(Cl)ccc3N1O2            88.7
2  Cc1ccc(Nc2nnc(-c3ccc(Cl)cc3)o2)c(C)c1            89.6

INPUT: # return recorded growth for input N=C(N)c1ccc(-c2ccc(-c3ccc4ccccc4c3)s2)cc1
OUTPUT: 92.3

###

# Tested on: NCI-H460 lung
# PROCEDURE DETAILS: NCI-60 one-dose screen, 48 h (100 = growth as untreated, 0 = no growth, -100 = all killed)
# SETUP CONDITIONS: 10 µM unless noted
The panel holds about 83,000 compounds, 20% with a hit somewhere; the sample as a whole holds those more often. Activity calls are given as the source filed them. How the source made its calls: active means growth percent below 10; inactive means the rest.
compounds and their reported growth

INPUT: # return recorded growth for input CCN(CC)CCCC(C)Nc1c2ccc(Cl)cc2nc2cc(OC)c(OC)cc12 (configuration not stated)
OUTPUT: -31.6% (active)

INPUT: # return recorded growth for input O=C(NNC(=O)N1c2ccccc2C=Cc2ccccc21)c1ccccc1
OUTPUT: 106% (inactive)

###

# System: HCT-15 colon
# PROCEDURE DETAILS: NCI-60 one-dose screen, 48 h (100 = growth as untreated, 0 = no growth, -100 = all killed)
# SETUP CONDITIONS: 10 µM unless noted
# Experimental: Growth inhibition of the HCT-15 human tumor cell line is measured as a screen for anti-cancer activity. Cells are grown in 96 well plates and exposed to the test compound for 48 hours. Compounds are tested at a single concentration, which is 10^-5 M for most compounds. The reported endpoint is percent growth (GI% or GIPRCNT), where numbers from 0 - 100% represent growth inhibition, and numbers from -100% - 0 represent cell death. For example, a value of 40 represents 60% growth inhibition. […]
Compounds without any hit were thinned out: in the full panel of roughly 83,000, 20% have a hit.
Classify: class 1 when growth is strictly less than 30%; class 0 when growth is not.

Example cases with answers are listed next.
> print(dat)
                                   compound  qualitative.label
1  Clc1cc(Cl)cc(-c2ccc(-c3ccc(/C=N/NC4=NCCN4)cc3)s2)c1            class 1
2  CCOC(=O)C1C(=O)C=C(c2ccc(OC)cc2)CC1c1sc(N(C)Cc2ccccc2)nc1Cl (configuration not stated)            class 0

INPUT: Quick check: growth of COc1ccc2c(c1)NC1=C(C(=O)OC1)C2c1cc(OC)c2c(c1)OCO2 (configuration not stated) under 30%?
OUTPUT: class 1

INPUT: Quick check: growth of COc1cc(-c2nc(-c3nc4ccc(Cl)cc4[nH]3)cc3c2[nH]c2ccccc23)cc(OC)c1OC under 30%?
OUTPUT: class 0

INPUT: Quick check: growth of COc1cc(C2CC(c3ccc4c(c3)OCO4)=NN2C=O)cc(OC)c1OC (configuration not stated) under 30%?
OUTPUT: class 0

###

# System: M14 melanoma
# PROCEDURE DETAILS: NCI-60 one-dose screen, 48 h
# SETUP CONDITIONS: 10 µM unless noted
This is part of a sample that, as a whole, favours compounds with a hit. Of some 83,000 tested, about 20% had one in any assay. The source made the active and inactive calls. The calls were made as follows: active = growth percent below 10; inactive = the rest.
Pick one and only one: active, inactive

> print(dat)
                               compound  qualitative.label
1  C=C[C@@H]1C[C@H](O)Cc2c(C)cc(C)cc2N1           inactive

Shift focus to the following entry.
INPUT: What did this assay record as the result for CN(C)c1cccc2c(S(=O)(=O)/N=C(\N)Nc3nc4ccccc4s3)cccc12 ?
OUTPUT: inactive

###

compounds and their reported growth
# Tested on: OVCAR-8 ovarian
# PROCEDURE DETAILS: NCI-60 one-dose screen, 48 h (100 = growth as untreated, 0 = no growth, -100 = all killed)
# SETUP CONDITIONS: 10 µM unless noted
# Description: Growth inhibition of the OVCAR-8 human tumor cell line is measured as a screen for anti-cancer activity. Cells are grown in 96 well plates and exposed to the test compound for 48 hours. Compounds are tested at a single concentration, which is 10^-5 M for most compounds. The reported endpoint is percent growth (GI% or GIPRCNT), where numbers from 0 - 100% represent growth inhibition, and numbers from -100% - 0 represent cell death. For example, a value of 40 represents 60% growth inhibition. […]
This is part of a sample that, as a whole, favours compounds with a hit. Of some 83,000 tested, about 20% had one in any assay.
# unit: % | format: bare number

Look over these answered cases.
> print(dat)
                                   compound  observed.value
1              NNc1cccc(/C=C/c2ccccc2)cc1=O            57.8
2  O=[N+]([O-])c1cccc(-c2nc3sccn3c2-c2ccnc(NCCCNS(=O)(=O)c3ccc(Cl)cc3)n2)c1              20
3  COC(=O)c1cccc2c1N(C)c1c(cccc1C(=O)OC)CC2             113
4  Cc1ccc(S(=O)(=O)c2nc(-c3ccccc3)oc2S(C)(=O)=O)cc1            54.7

INPUT: # return recorded growth for input COc1cc(C2CC(c3ccc4c(c3)OCO4)=NN2C=O)cc(OC)c1OC (stereo not drawn)
OUTPUT: 53.9

INPUT: # return recorded growth for input O=C(O)Cc1cccc(=O)c(O)c1C(=O)O
OUTPUT: 105

INPUT: # return recorded growth for input Cc1c(C(=N)C(C#N)C#N)c(=N)oc2c1ccc1ccccc12
OUTPUT: 80.8

INPUT: # return recorded growth for input COc1ccc(Nc2nn3c(C)cc(C)nc3c2C(=O)Nc2ccc(C)cc2)c(OC)c1
OUTPUT: 100

###

compounds and their reported growth
# Tested on: SF-268 CNS
# PROCEDURE DETAILS: NCI-60 one-dose screen, 48 h (100 = growth as untreated, 0 = no growth, -100 = all killed)
# SETUP CONDITIONS: 10 µM unless noted
About 83,000 compounds went through this panel and 20% of them were active in at least one assay; those are over-represented in the sample as a whole.
# unit: % | format: bare number

Look over these answered cases.
> print(dat)
                                   compound  target.or.test.system  observation.type  measurement.unit  observed.value
1  Cn1c(=O)cc(NC(=O)CN2CCN(c3cc4c(cc3F)c(=O)c(C(=O)O)cn4C3CC3)CC2)[nH]c1=O             SF-268 CNS            growth                 %            92.7
2        C=C[C@@H]1C[C@@H]2Cc3cc(F)ccc3N1O2             SF-268 CNS            growth                 %             106
3  CCCCCc1cc[n+](CC(=O)c2ccc([N+](=O)[O-])cc2)cc1             SF-268 CNS            growth                 %            87.3

INPUT: Fetch value of growth on SF-268 CNS for Fc1ccc(-c2nc(-c3nc4ncccc4[nH]3)cc3c2[nH]c2ccccc23)cc1F .
OUTPUT: 71.1

INPUT: Fetch value of growth on SF-268 CNS for N#Cc1c(-c2ccccc2)cc(-c2ccccc2)n(CC(=O)NO)c1=O .
OUTPUT: 52.5

###

# System: SR leukemia
# PROCEDURE DETAILS: NCI-60 one-dose screen, 48 h (100 = growth as untreated, 0 = no growth, -100 = all killed)
# SETUP CONDITIONS: 10 µM unless noted
The panel holds about 83,000 compounds, 20% with a hit somewhere; the sample as a whole holds those more often. Active and inactive are the calls of the source. The calls were made as follows: active = growth percent below 10; inactive = the rest.
OBSERVATION TYPE: growth

Look over these answered cases.
COMPOUND	growth
COc1ccc(-c2ccc(-c3ccc(-c4ccc(C(=N)N)cc4)s3)s2)cc1OC	6.75% (active)
COc1cccc(CC(C)=C(c2ccc(OCCN(C)C)cc2)c2ccc(OCCN(C)C)cc2)c1	-17% (active)
O=C(CSc1nc2ccccc2[nH]1)c1ccc(N2CCOCC2)cc1	129% (inactive)

INPUT: # return recorded growth for input C=C(C)[C@@H]1C[C@@H]2Cc3ccc(Cl)c(C)c3N1O2
OUTPUT: 80.2% (inactive)
